Target: T1, O15-bA
T1 chain: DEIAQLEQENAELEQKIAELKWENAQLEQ
Assay: two-hybrid library CCNG1;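 note: natural log of median RNA to DNA barcode read ratio; higher means stronger binding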
OUTCOME_MEASURE: interaction score

Worked cases, interaction score given:
# BINDER, OUTCOME_MEASURE, VALUE_OBSERVED
rows = [
    ("DEIAQLKQKNAELKQEIAELEWKNAQLEQ [4H967-bA]", "interaction score", 1.66),
    ("DEIAQLEQKIAELKQKNAELKWKNAQLKQ [O12-bA]", "interaction score", -0.225),
    ("DKNAQLKQENAELEQEIAELEWEIAQLEQ [O1-bA]", "interaction score", -1.03),
    ("DKIAQLKQEIAELEQENAELEWENAQLEQ [O11-bA]", "interaction score", -0.971),
]

A = DKNAQLKQKIAELKQKNAELKWEIAQLEQ [O13-bA]
B = DEIAQLEQENAELEQKIAELKWENAQLEQ [O15-bA]
C = DKIAQLKQENAELEQEIAELKWKIAQLKQ [4H2702-bA]
D = DENAQLEQEIAELEQENAELEWKIAQLKQ [O14-bA]
Inquiry: Sort ascending by interaction score. Return the labels ranked in the requested order, please.
Reply text: B, D, C, A
(B: -1.57, D: -0.126, C: 0.113, A: 0.435)
